# measured target: macaque HER3 extracellular domain on 300-19 cells (pSRa-chiHER3) (macaque; human)
# Sequence (P21860 644-1342, form in doubt): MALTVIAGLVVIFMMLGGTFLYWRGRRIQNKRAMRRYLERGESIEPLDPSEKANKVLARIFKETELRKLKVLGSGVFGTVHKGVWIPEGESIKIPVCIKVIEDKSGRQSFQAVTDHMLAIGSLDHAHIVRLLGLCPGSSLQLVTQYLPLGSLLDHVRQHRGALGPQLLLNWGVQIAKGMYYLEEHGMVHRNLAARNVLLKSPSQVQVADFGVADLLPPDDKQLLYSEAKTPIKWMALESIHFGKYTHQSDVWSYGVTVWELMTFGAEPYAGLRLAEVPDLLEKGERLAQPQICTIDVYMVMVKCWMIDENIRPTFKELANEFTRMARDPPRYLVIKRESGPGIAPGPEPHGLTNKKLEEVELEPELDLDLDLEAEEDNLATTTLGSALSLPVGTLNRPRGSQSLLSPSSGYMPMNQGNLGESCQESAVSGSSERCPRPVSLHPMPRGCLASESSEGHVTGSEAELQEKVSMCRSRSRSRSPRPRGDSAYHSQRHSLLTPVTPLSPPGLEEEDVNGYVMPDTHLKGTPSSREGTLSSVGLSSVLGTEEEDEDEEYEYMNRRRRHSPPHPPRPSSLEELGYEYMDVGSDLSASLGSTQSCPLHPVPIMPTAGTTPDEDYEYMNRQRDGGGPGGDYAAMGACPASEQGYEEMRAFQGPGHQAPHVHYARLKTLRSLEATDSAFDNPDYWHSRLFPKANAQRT
# assay remarks: flow cytometry on maHER3-overexpressing 300-19 cells, apparent Kd
measured quantity: Kd (nM)
Write the value in nM as a bare number.

Solved entries (count: 3):
huHER3-8-SMCC-DM1 conjugate (antibody, V domains shown, SMCC-DM1 maytansinoid linked to the antibody, 3.5-4 DM1 molecules per antibody; attachment residues and chain not stated, Immunoconjugate of huHER3-8 (v.1.00) with human constant regions; also called huHER3-8-SMCC-DMl) VH: QVQLQESGPGLVKPSQSLSLTCTVTGSSITSDYAWNWIRQHPGNKLEWMGFISYSGSTSYNPSLKSRISITRDTSKNQFFLHLSSVTAADTATYYCSRRLGRLYYFDYWGQGTLLTVSS VL: EIVMTQSPATLSVTPGDRVSLSCRASQSINDYLHWYQQKPGQSPRLLIKFASHSISGIPDRFSGSGSGSDFTLTISSVEPEDVGVYYCQNGHSFPWTFGGGTKLEIKR; 0.29
huHER3-8v.1.00 antibody (antibody, V domains shown, Recombinant humanized antibody with human constant regions; also called huHER3-8 naked antibody) VH: QVQLQESGPGLVKPSQSLSLTCTVTGSSITSDYAWNWIRQHPGNKLEWMGFISYSGSTSYNPSLKSRISITRDTSKNQFFLHLSSVTAADTATYYCSRRLGRLYYFDYWGQGTLLTVSS VL: EIVMTQSPATLSVTPGDRVSLSCRASQSINDYLHWYQQKPGQSPRLLIKFASHSISGIPDRFSGSGSGSDFTLTISSVEPEDVGVYYCQNGHSFPWTFGGGTKLEIKR; 0.19
huHER3-8-SPDB-DM4 conjugate (antibody, V domains shown, SPDB-DM4 maytansinoid linked to the antibody, 3.5-4 DM4 molecules per antibody; attachment residues and chain not stated, Immunoconjugate of huHER3-8 (v.1.00) with human constant regions) VH: QVQLQESGPGLVKPSQSLSLTCTVTGSSITSDYAWNWIRQHPGNKLEWMGFISYSGSTSYNPSLKSRISITRDTSKNQFFLHLSSVTAADTATYYCSRRLGRLYYFDYWGQGTLLTVSS VL: EIVMTQSPATLSVTPGDRVSLSCRASQSINDYLHWYQQKPGQSPRLLIKFASHSISGIPDRFSGSGSGSDFTLTISSVEPEDVGVYYCQNGHSFPWTFGGGTKLEIKR; 0.23

Okay, next one:
Prompt line: Give the measured Kd of huHER3-8-PEG4-mal-DM1 conjugate (antibody, V domains shown, PEG4-mal-DM1 maytansinoid linked to the antibody, 3.5-4 maytansinoid molecules per antibody; attachment residues and chain not stated, Immunoconjugate of huHER3-8 (v.1.00) with human constant regions; also called huHER3-8-PEG-mal-DM1; huHER3-8-PEG4-Mal-DMl) VH: QVQLQESGPGLVKPSQSLSLTCTVTGSSITSDYAWNWIRQHPGNKLEWMGFISYSGSTSYNPSLKSRISITRDTSKNQFFLHLSSVTAADTATYYCSRRLGRLYYFDYWGQGTLLTVSS VL: EIVMTQSPATLSVTPGDRVSLSCRASQSINDYLHWYQQKPGQSPRLLIKFASHSISGIPDRFSGSGSGSDFTLTISSVEPEDVGVYYCQNGHSFPWTFGGGTKLEIKR .
Response line: 0.28
